# tested-system: human BRD4 bromodomain II (Homo sapiens, UniProt O60885)
# Construct: human BRD4 bromodomain II [based on Genbank NM_058243, residues 349-460]; host or cells: E. coli
# method-description: Bromodomain binding assay (AlphaScreen), BRD4 BDII
# condition-description: AlphaScreen assay, Table C2; read-out: BRD4 BDII IC50
endpoint-name: IC50

I am curious: what IC50 value has been reported for CC(=O)Nc1c(F)cc(-c2cccc(-c3cccc(N4CCNCC4)c3)c2O)cc1OCC1CC1 ?
10 to 100 nM

I am curious: what IC50 value has been reported for CC(=O)Nc1ccc(-c2cccc(-c3ccc4c(ccn4C)c3)c2O)cc1F ?
> 100 nM

---

# tested-system: human BRD4 bromodomain II (Homo sapiens, UniProt O60885)
# Construct: human BRD4 bromodomain II [based on Genbank NM_058243, residues 349-460]; host or cells: E. coli
# method-description: Bromodomain binding assay (AlphaScreen), BRD4 BDII
# condition-description: AlphaScreen assay, Table C2; read-out: BRD4 BDII IC50
endpoint-name: IC50

> print(dat)
                                   molecule   measurement
1  CC(=O)Nc1ccc(-c2cccc(-c3cccc(N4CCNC[C@@H]4C)c3)c2O)cc1F  10 to 100 nM

I am curious: what IC50 value has been reported for Cn1ccn(-c2ccc(-c3cc(F)cc(-c4ccnc(N5CC(C)(O)C6(CC6)C5)c4)c3O)cc2Cl)c1=O (stereo not shown) ?
1 to 10 nM

I am curious: what IC50 value has been reported for CC(=O)Nc1ccc(-c2cccc(-c3cc(N4CCNCC4)cc(C(F)(F)F)c3)c2O)cc1F ?
1 to 10 nM

I am curious: what IC50 value has been reported for CC(=O)Nc1ccc(-c2cccc(-c3ccc4c(c3)CCN4)c2O)cc1F ?
> 100 nM

---

# tested-system: human BRD4 bromodomain II (Homo sapiens, UniProt O60885)
# Construct: human BRD4 bromodomain II [based on Genbank NM_058243, residues 349-460]; host or cells: E. coli
# method-description: Bromodomain binding assay (AlphaScreen), BRD4 BDII
# condition-description: BRD4 BDII AlphaScreen assay; read-out: BRD4 BD2 IC50
pIC50: −log10 of the molar value.
Examples of compounds with documented pIC50 follow.

Field: example entries. Status: answers known.
> print(dat)
                                   compound                             tested.system   measurement
1  Cn1ccn(-c2ccc(-c3cc(F)cc(-c4cccc(-c5ccc(CN)cc5)c4)c3O)cc2Cl)c1=O [Example 863]  human BRD4 bromodomain II (Homo sapiens, UniProt O60885)  7.00 to 8.00
2  Cn1ccn(-c2ccc(-c3cc(F)cc(-c4ccnc(N5CC(F)(F)[C@@](C)(O)C5)c4)c3O)cc2Cl)c1=O [Example 882]  human BRD4 bromodomain II (Homo sapiens, UniProt O60885)  8.00 to 9.00
3  COC(=O)OCOc1c(-c2ccc(-n3ccn(C)c3=O)c(Cl)c2)cc(F)cc1-c1cnc(C)c(N2CCN(C(C)C)CC2)c1 [Example 878]  human BRD4 bromodomain II (Homo sapiens, UniProt O60885)        < 7.00

I am curious: what pIC50 value has been reported for COc1ncc(-c2cc(F)cc(-c3ccc(-n4ccn(C)c4=O)c(Cl)c3)c2O)cc1N1CC[C@@]2(CCN2C(C)C)C1 [Example 902] ?
9.00 to 11.00

I am curious: what pIC50 value has been reported for Cc1cc(-c2ccc(-n3ccn(C)c3=O)c(Cl)c2)c(O)c(-c2cnc(N(C)C)c(N3CCN(C(C)(C)C)CC3)c2)n1 [Example 964] ?
9.00 to 11.00

I am curious: what pIC50 value has been reported for Cn1ccn(-c2ccc(-c3ccnc(-c4cnc(N)c(N5CCN(C(C)(C)C)CC5)c4)c3O)cc2Cl)c1=O [Example 984] ?
7.00 to 8.00

I am curious: what pIC50 value has been reported for Cn1ccn(-c2ccc(-c3cc(F)cc(-c4cc(N5CCN(C(C)(C)C)CC5)ccn4)c3O)cc2Cl)c1=O [Example 953] ?
< 7.00

I am curious: what pIC50 value has been reported for Cc1cc(-c2ccc(-n3ccn(C)c3=O)c(Cl)c2)c(O)c(-c2cnc(N)c(N3CCC4(CCN4C(C)C)C3)c2)n1 (centres unmarked) [Example 975] ?
8.00 to 9.00

I am curious: what pIC50 value has been reported for CC(=O)Nc1ccc(-c2cc(F)cc(-c3cccc(N4CCN(C(C)(C)C)CC4)c3)c2O)nn1 [Example 896] ?
< 7.00

I am curious: what pIC50 value has been reported for Cc1nc(-c2cccc(N3CCN(C(C)(C)C)CC3)c2)c(O)c(-c2ccc(-n3ccn(C)c3=O)c(Cl)c2)n1 [Example 920] ?
< 7.00

I am curious: what pIC50 value has been reported for CC(=O)Nc1ccc(-c2cc(F)cc(-c3cccc(N4CCN(C(C)(C)C)CC4)c3)c2O)cn1 [Example 908] ?
< 7.00

I am curious: what pIC50 value has been reported for Cc1cc(-c2ccc(-n3ccn(C)c3=O)c(Cl)c2)c(O)c(-c2ccc(Cl)c(N3CCN(C(C)(C)C)CC3)c2)n1 [Example 1013] ?
8.00 to 9.00

I am curious: what pIC50 value has been reported for Cc1cc(-c2cccc(N3CCN(C(C)(C)C)CC3)c2)c(O)c(-c2ccc(-n3ccn(C)c3=O)c(Cl)c2)c1 [Example 1016] ?
9.00 to 11.00

I am curious: what pIC50 value has been reported for Cc1cc(-c2ccc(-n3ccn(C)c3=O)c(Cl)c2)c(O)c(-c2cc(F)c(F)c(N3CCN(C(C)(C)C)CC3)c2)n1 [Example 1026] ?
9.00 to 11.00
